Values were extracted from PubChem BioAssay (NCATS).

- Tested on: CRL-7250
- procedure details: qHTS assay to identify novel small-molecules to repurpose for Merkel cell carcinoma treatment (AID 1296009); further: nearly all actives have a fitted effect of over 60% in size
- test conditions: MCC and control cell lines, CellTiter-Glo viability, 72 h; series mostly up to 92 µM
Inconclusive results are not listed. Calls of active or inactive are those of the source. The call rests on the fitted dose curve; in most records, active means well fitted inhibition curve with a large enough effect; inconclusive means small, poorly fitted or top-dose-only effect; inactive means flat fitted curve, though single readings scatter.
measure: outcome

The cases that follow already have their outcome on record.
CCC(C)C(=O)OC[C@H]1O[C@H](O[C@H]2O[C@H](CO)[C@@H](O)[C@H](O)[C@H]2O)[C@H](O)[C@@H](O)[C@@H]1O (stereo not given in full); inactive
CC1(C)C[C@H](O)C[C@@]2(C)[C@H]1[C@H](O)C=C1COC(=O)[C@@]12O; inactive
CC(C)(C)NCC(O)COc1cccc2c1CCCC2=O (stereo not given); inactive
C/C=C/CCC1Cc2cc(O)c(CCCC)c(O)c2C(=O)O1 (stereo not given); inactive

CRL-7250 outcome of `CCNCc1nc2c(N)nc3ccccc3c2n1CC(C)(C)O` is inactive
